OD450 by entry:
Molecular target: T1, cynomolgus FOLR1 protein, His Tag (ACRO F01-C52H8) (cynomolgus, UniProt A0A2K5U044 25-233)
T1 construct: Bought protein coated on ELISA plates; also called Cynomolgus/Rhesus macaque FOLR1, Protein, His Tag; not shown: His tag
T1 sequence (A0A2K5U044 entry or part of it): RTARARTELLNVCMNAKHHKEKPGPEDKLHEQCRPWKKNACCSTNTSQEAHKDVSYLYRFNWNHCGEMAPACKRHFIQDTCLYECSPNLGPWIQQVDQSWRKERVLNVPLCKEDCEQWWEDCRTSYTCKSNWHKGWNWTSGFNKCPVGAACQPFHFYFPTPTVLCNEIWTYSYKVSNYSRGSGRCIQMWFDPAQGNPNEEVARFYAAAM
Assay: ELISA, coated cyno FOLR1-His, supernatant 5x
Numbers only here, please. The scale is OD450.

Consider the following illustrative entries.
binder	value.reported
F8 (antibody, V domains shown, Tested as full-length IgG with an IgG1 Fc from HEK293, as supernatant or purified; also called clone F8; anti-FOLR1 antibody F8) VH: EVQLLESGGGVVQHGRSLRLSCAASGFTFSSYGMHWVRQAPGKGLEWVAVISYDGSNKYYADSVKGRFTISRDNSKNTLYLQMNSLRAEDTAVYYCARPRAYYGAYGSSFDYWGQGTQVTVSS VL: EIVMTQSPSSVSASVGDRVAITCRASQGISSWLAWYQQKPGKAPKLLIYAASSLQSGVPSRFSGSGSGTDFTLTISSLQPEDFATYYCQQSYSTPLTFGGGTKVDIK	1.28
F123 (antibody, V domains shown, Tested as full-length IgG with an IgG1 Fc from HEK293, as supernatant or purified; also called clone F123; anti-FOLR1 antibody F123) VH: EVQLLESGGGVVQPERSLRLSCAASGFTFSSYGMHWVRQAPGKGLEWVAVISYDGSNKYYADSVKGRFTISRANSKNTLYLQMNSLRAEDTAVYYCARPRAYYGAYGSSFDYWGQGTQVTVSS VL: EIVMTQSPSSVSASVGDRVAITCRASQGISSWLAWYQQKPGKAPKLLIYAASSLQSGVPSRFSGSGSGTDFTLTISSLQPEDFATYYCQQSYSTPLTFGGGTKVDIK	1.3

**Query** OD450 for F138 (antibody, V domains shown, Tested as full-length IgG with an IgG1 Fc, HEK293 supernatant; also called clone F138; anti-FOLR1 antibody F138) VH: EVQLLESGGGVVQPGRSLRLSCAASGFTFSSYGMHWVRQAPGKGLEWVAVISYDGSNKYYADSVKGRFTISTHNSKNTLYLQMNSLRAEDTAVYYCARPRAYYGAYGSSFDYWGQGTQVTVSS VL: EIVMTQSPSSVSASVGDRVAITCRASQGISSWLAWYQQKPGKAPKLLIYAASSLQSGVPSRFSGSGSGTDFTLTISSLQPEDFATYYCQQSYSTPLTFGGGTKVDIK ?
**Result** 1.14

**Query** OD450 for F48 (antibody, V domains shown, Tested as full-length IgG with an IgG1 Fc from HEK293, as supernatant or purified; also called clone F48; anti-FOLR1 antibody F48) VH: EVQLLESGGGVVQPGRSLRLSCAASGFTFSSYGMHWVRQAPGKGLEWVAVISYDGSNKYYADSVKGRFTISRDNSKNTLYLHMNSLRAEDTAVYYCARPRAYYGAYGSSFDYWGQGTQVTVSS VL: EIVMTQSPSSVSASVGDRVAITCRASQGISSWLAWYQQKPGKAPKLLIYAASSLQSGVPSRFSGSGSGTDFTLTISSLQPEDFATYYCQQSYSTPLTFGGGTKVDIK ?
**Result** 1.04

**Query** OD450 for F40 (antibody, V domains shown, Tested as full-length IgG with an IgG1 Fc from HEK293, as supernatant or purified; also called clone F40; anti-FOLR1 antibody F40) VH: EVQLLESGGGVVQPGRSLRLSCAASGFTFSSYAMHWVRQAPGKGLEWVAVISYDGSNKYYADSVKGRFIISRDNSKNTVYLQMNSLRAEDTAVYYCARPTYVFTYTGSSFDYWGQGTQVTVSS VL: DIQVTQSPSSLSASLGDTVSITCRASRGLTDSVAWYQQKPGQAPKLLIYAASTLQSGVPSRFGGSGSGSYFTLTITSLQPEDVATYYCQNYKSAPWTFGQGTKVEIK ?
**Result** 1.11

**Query** OD450 for F131 (antibody, V domains shown, also called clone F131; F131 mAb) VH: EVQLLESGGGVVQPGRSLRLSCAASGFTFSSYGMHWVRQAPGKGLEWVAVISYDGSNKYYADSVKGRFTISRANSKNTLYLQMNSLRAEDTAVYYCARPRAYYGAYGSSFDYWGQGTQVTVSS VL: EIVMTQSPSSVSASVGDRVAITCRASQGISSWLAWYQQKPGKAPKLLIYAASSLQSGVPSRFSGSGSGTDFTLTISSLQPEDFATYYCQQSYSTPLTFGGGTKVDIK ?
**Result** 1.27

**Query** OD450 for F112 (antibody, V domains shown, Tested as full-length IgG with an IgG1 Fc from HEK293, as supernatant or purified; also called clone F112; anti-FOLR1 antibody F112) VH: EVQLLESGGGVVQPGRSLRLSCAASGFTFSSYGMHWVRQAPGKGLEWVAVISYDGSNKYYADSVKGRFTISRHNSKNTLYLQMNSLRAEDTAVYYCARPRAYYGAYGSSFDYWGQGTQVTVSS VL: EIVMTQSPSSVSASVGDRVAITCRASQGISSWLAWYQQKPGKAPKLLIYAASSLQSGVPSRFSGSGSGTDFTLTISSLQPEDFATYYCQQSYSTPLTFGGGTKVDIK ?
**Result** 1.21
